The reported measurements were obtained from patent US20260028418A1.

Target: T1, HER2-ECD-Fc (human, UniProt P04626 23-652)
T1 construct: extracellular domain; Produced in FreeStyle 293F cells; also called HER2-ECD Fc fusion protein
Experiment: ELISA on HER2-ECD-Fc; antibody at 5 × 10^-7 µg/mL
reportedEndpoint: absorbance
The answer should be written as a number, with no unit following it.

1. hz39D2 (antibody, V domains shown, Humanized antibody, captured as IgG by anti-human IgG in SPR; also called humanized 39D2 antibody) VH: QVQLVQSGSELKKPGASVKVSCKASGYTFTNYGVNWVRQAPGQGLEWMGWINTHTGEPTYAEEFKGRFVFSLDTSVSTAYLQISSLKAEDTAVYYCARDDYYVRVDYWGQGTTVTVSS VL: DIQMTQSPSSLSASVGDRVTITCKASQDINSYLSWFQQKPGKAPKTLIYRANRLVDGVPSRFSGSGSGQDYTLTISSLQPEDFATYYCLQYDEFPWTFGQGTKVEIK = 0.12

Would you kindly look at the next entry?
Lab book: absorbance of 1G3 (antibody, V domains shown) VH: EVQLQQSGAELVKPGASVKLSCTASDFNIVDTYMHWVKQRPEQGLEWIGRIDPANGYTRYDPNFQGKATITADTSSNTAYLQLSSLTSEDTAVYYCARYYYGFYAMDYWGQGTTVTVSS VL: DIVMTQSHKFMSTSVGDRVSITCKASQDVSTAVAWYQQKPGQSPKLLIYSASYRYTGVPDRFTGSGSGTDFTFTISSVQAEDLAVYYCQQHYSTPPTFGGGTKLELK noted as 0.11
